# Test system: NCI-H460
# PROTOCOL_DETAILS: NCI tumour cell line growth inhibition, 48 h
Active and inactive are the calls of the source. Rule as the data show it: active = GI50 up to about 1.1 µM and inactive = higher.
MEASURED_ENDPOINT: GI50

COMPOUND	EXPERIMENTAL_SYSTEM	VALUE
S=C1c2ccccc2N=C(NC2CCCC2)C2CSCN12 (stereo not given)	NCI-H460	61.1 µM (inactive)
CC[C@@H]1/C=C/C=C/C[C@H](C)[C@@H](O)[C@@H](C)C(=O)[C@H](C)[C@@H](O)[C@H](C)C(=O)[C@H](C)[C@@H](O)[C@H](C)/C=C/C(=O)O[C@H]2[C@@H](C)[C@@H](CC1)O[C@@]1(CC[C@@H](C)[C@@H](CC(C)O)O1)[C@@H]2C (stereo not given in full)	NCI-H460	2.17 µM (inactive)
CN(C)CC1CCCCCCCCCCCCC(CN(C)C)C1=O (stereo not given)	NCI-H460	13.7 µM (inactive)
CC1=NN(c2nc(N)nc(C(C)Cl)n2)C(C)(C)C1 (stereo not given)	NCI-H460	> 100 µM (inactive)
Cc1c(NC(=O)CSC(=S)N2CCN(Cc3ccccc3)CC2)c(=O)n(-c2ccccc2)n1C	NCI-H460	> 100 µM (inactive)

* * *

# Tested on: HOP-62
# PROTOCOL_DETAILS: NCI tumour cell line growth inhibition, 48 h
Activity calls are given as the source filed them. No stated cut-off is given here; in the data, active = GI50 up to about 1.1 µM and inactive = higher.
Outcome codes: 1.0 = active, 0.0 = inactive

MOLECULE	EXPERIMENTAL_SYSTEM	DISCRETE_LABEL
O=C1NC2C(=O)N(Cc3ccccc3)C(=O)C2N1 (configuration not stated)	HOP-62	0.0
Cc1ccc(S(=O)(=O)C2=Cc3ccc(C(F)(F)F)cc3C2(O)c2cccc(C(F)(F)F)c2)cc1 (configuration not stated)	HOP-62	0.0
COc1ccc2[nH]c(S(=O)(=O)N3CC(CCl)c4ccc(N)cc43)cc2c1 (configuration not stated)	HOP-62	1.0
COc1cccc(-c2cc(O)c3cc(N4CCOCC4)ccc3n2)c1	HOP-62	1.0
Cc1cc2c(cc1-c1cc3c(cc1C)C(C(C)C)=C(O)C(=O)/C3=C\Nc1cccc3c(N)cccc13)/C(=C/Nc1cccc3c(N)cccc13)C(=O)C(O)=C2C(C)C	HOP-62	0.0
Cc1ccc2[nH]c3c(c2c1)C1CCC(C(C)(C)C)CC1C1C(=O)N(c2ccc4c(c2)OCO4)C(=O)C31 (configuration not stated)	HOP-62	0.0
CC(=O)C(/N=N\C1CCC(S(=O)(=O)NB2N=CS2)CC1)C(=O)Nc1ccccc1C (configuration not stated)	HOP-62	0.0
COCO[C@@H]1C[C@H]2C(O)Nc3ccccc3C(=O)N2C1 (some centres not stated)	HOP-62	0.0
O=c1cc(-c2ccccc2)oc2cc(O)cc(O)c12 [CHRYSIN]	HOP-62	0.0
CC(=O)n1nc(-c2[nH]c(C)c(-c3nn(C(C)=O)c(=S)o3)c2C)oc1=S	HOP-62	0.0
ClCc1nc2cc(Cl)ccc2o1	HOP-62	0.0
Oc1cc(O)c2c(c1)O[C@H](c1cc(O)c(O)c(O)c1)[C@@H](O)C2 [GALLOCATECHIN]	HOP-62	0.0
COC(=O)/C=C(\C)CC/C=C(\C)CCC(O)C(C)(C)O (configuration not stated)	HOP-62	0.0
COC1C(C)OC(OC2CC(C)(O)Cc3cc4c(c(O)c32)C(=O)c2c(O)cc3c(c2C4=O)OC2OC3(C)C(O)C(N(C)C)C2O)C(OC)C1(C)OC (configuration not stated)	HOP-62	1.0
Cc1nc2ccc(Cl)cc2c2c1CCN2c1ccccc1	HOP-62	0.0
COc1ccc(/C=C2\C[C@H]3[C@@H]4CCC5=C[C@@H](N6CCCC6)CC[C@]5(C)[C@H]4CC[C@]3(C)[C@H]2O)cc1	HOP-62	0.0
CCCC1=C(CC)C(C(=O)Nc2c(C)cccc2C)=NC(S)N1 (configuration not stated)	HOP-62	0.0
CC(=O)C1=C(C)N(c2ccc(C)cc2)C2(O)C=CC(O)=C3C(=O)c4ccccc4C(=O)C312 (configuration not stated)	HOP-62	0.0
COc1ccc(-c2c(-c3ccccc3)c(C)nc3nc(SC)nc(SC)c23)cc1OC	HOP-62	0.0
O=C(O)CC(CC(=O)O)n1cccc1	HOP-62	0.0
COc1cc(/C=C2\N=C(c3ccccc3)N(c3nc4ccccc4s3)C2=O)cc(OC)c1OC	HOP-62	0.0
S=P(N1CC1)(N1CC1)N1CC1 [THIOTEPA]	HOP-62	0.0
CC(=O)/C=C\C1CC2C=CC1C2 (configuration not stated)	HOP-62	0.0
C/C=C/c1cc2c(cc1O)CC[C@@H]1[C@@H]2CC[C@]2(C)[C@@H](O)CC[C@@H]12	HOP-62	1.0
O=C(NCCSSCCNC(=O)/C(Cc1ccc(O)c(Br)c1)=N/O)/C(Cc1ccc(O)c(Br)c1)=N/O [PSAMMAPLIN A]	HOP-62	1.0
Cc1c2ccccc2c(/C=N/NC(=O)CSCC(=O)N/N=C/c2c3ccccc3c(C)c3ccccc23)c2ccccc12	HOP-62	0.0
CCOC(=O)CCC(NC(=O)c1ccc(Nc2nc3cc(C(F)(F)F)ccc3nc2C(=O)OCC)cc1)C(=O)OCC (configuration not stated)	HOP-62	0.0
C[C@H]1COC2(c3ccccc3)CCC(=O)N12 (some centres not stated)	HOP-62	0.0
Cc1ccc2nc3cc(C)c(=O)cc-3sc2c1	HOP-62	0.0
Cc1cn(CCCCCOC(=O)NC(CCCNC(N)=O)C(=O)O)c(=O)[nH]c1=O (configuration not stated)	HOP-62	0.0
COc1ccc(-c2cc(=O)c3c(O)cc(O)cc3o2)c(OC)c1OC	HOP-62	0.0
CC(C)CCC[C@@H](C)[C@H]1CC[C@H]2[C@@H]3CC[C@H]4C[C@H](N)CC[C@]4(C)[C@H]3CC[C@]12C	HOP-62	0.0
CC1(O)CCn2c(=O)c3cc4ccccc4cc3c(=O)n2C1O (configuration not stated)	HOP-62	0.0
C=CCOC1(CC=C)C(=O)OC2C(O)COC21O (configuration not stated)	HOP-62	0.0
COc1ccc2[nH]c3nnc(N)c-3nc2c1	HOP-62	0.0
C[C@H]1C(=O)O[C@@H]2CCN3CC=C(COC(=O)[C@](C)(O)[C@@]1(C)O)[C@H]23	HOP-62	0.0
C=CCN1C(=O)/C(=C/c2ccccc2)N=C1SC1OC(COC(C)=O)C(OC(C)=O)C(OC(C)=O)C1OC(C)=O (configuration not stated)	HOP-62	0.0

* * *

# Test system: MOLT-4
# PROTOCOL_DETAILS: NCI tumour cell line growth inhibition, 48 h
Activity calls are given as the source filed them. Rule as the data show it: active = GI50 up to about 1.1 µM and inactive = higher.
Outcome codes: true for active, false for inactive

MOLECULE	DISCRETE_LABEL
C=CCN1C(=O)/C(=C/c2ccccc2)N=C1SC1OC(COC(C)=O)C(OC(C)=O)C(OC(C)=O)C1OC(C)=O (stereo not drawn)	false
C[C@@H]1CC[C@H]2C(C)(C)[C@H]3C[C@@]12CC[C@@]3(C)O	false
Cc1ccc(C(=O)Nc2ccc(S(=O)(=O)O)c3cc(S(=O)(=O)O)cc(S(=O)(=O)O)c23)cc1NC(=O)c1cccc(NC(=O)Nc2cccc(C(=O)Nc3cc(C(=O)Nc4ccc(S(=O)(=O)O)c5cc(S(=O)(=O)O)cc(S(=O)(=O)O)c45)ccc3C)c2)c1	false
CC(=O)OCC(Br)C1(C)CCC(C(C)(C)Br)O1 (stereo not drawn)	false
CCCC1=C(CC)C(C(=O)Nc2c(C)cccc2C)=NC(S)N1 (stereo not drawn)	false
COc1cc(CN2CCCCC2)cc2cc(C(=O)O)c(=O)oc12	false
C=CCn1cc(C(=O)NC(=O)NCCCCCOC(=O)CCCCCCCCCCC(=O)OCCCCCNC(=O)NC(=O)c2cn(CC=C)c(=O)n(C)c2=O)c(=O)n(C)c1=O	false
O=C1CSC2(CC(/C=C/c3cccc([N+](=O)[O-])c3)=NN2c2cccc(S(=O)(=O)O)c2)N1c1nc2ccccc2s1 (stereo not drawn)	false
OC1OC(c2ccc[nH]2)C(F)(F)C(F)(F)C1(F)F (stereo not drawn)	false
O=C1Nc2ccccc2/C1=C/c1ccccc1	false
COc1cc[n+](C)cc1	false
CC1(O)CCn2c(=O)c3cc4ccccc4cc3c(=O)n2C1O (stereo not drawn)	false
CC1=NN(c2nc(N)nc(C(C)Cl)n2)C(C)(C)C1 (stereo not drawn)	false
CCOC(=O)c1c(NC(=O)c2cccs2)sc2c1CCC2	false
O=C1c2cccnc2S(=O)(=O)N1c1ccc([N+](=O)[O-])cc1	false
CC(=O)OC1COC(n2c(=S)n(-c3ccccc3)c(=O)c3ccccc32)C(OC(C)=O)C1OC(C)=O (stereo not drawn)	false
COc1cc(CC2c3cc(OC)c(OC)cc3CCN2C)c(Oc2cc3c(cc2OC)-c2c(O)c(OC)cc4c2C(C3)N(C)CC4)cc1OC (stereo not drawn)	false
CC[C@@H]1/C=C/C=C/C[C@H](C)[C@@H](O)[C@@H](C)C(=O)[C@H](C)[C@@H](O)[C@H](C)C(=O)[C@H](C)[C@@H](O)[C@H](C)/C=C/C(=O)O[C@H]2[C@@H](C)[C@@H](CC1)O[C@@]1(CC[C@@H](C)[C@@H](CC(C)O)O1)[C@@H]2C (stereo partly drawn)	true
OCC1OC(OCC(O)C(O)C(O)C(/C=N/Nc2ccccc2)=N/Nc2ccccc2)C(O)C(O)C1O (stereo not drawn)	false
Cc1ccc(/N=C2\SC(=S)N(CCC[N+](C)(C)C)\C2=N/c2ccc(C)cc2)cc1	false
Oc1cc(O)c2c(c1)O[C@H](c1cc(O)c(O)c(O)c1)[C@@H](O)C2	false
COC(=O)C(CC12CC3CC(CC(C3)C1)C2)NC(=O)C(N)CC(=O)O (stereo not drawn)	false
Nc1cc2c3c(cccc3c1)C(=O)N(CCN1CCN(CCN3C(=O)c4cccc5cc(N)cc(c45)C3=O)CC1)C2=O	false
CS(=O)(=O)c1ccc(COP(N)(=O)N(CCCl)CCCl)cc1 (stereo not drawn)	false
Oc1c(Cl)c(Cl)c(O)c(CCNc2nccs2)c1Cl	false
Cc1c2ccccc2c(/C=N/NC(=O)CSCC(=O)N/N=C/c2c3ccccc3c(C)c3ccccc23)c2ccccc12	false
CC1=Nc2c(C#N)ncn2N=C(C)C1	false
O=c1cc(-c2ccccc2)oc2cc(O)cc(O)c12	false
CCOC(=O)CCC1(C(=O)OCC)CCCC1=O (stereo not drawn)	false
CS(=O)(=O)OCCn1c(=O)n(CCOS(C)(=O)=O)c(=O)n(CCOS(C)(=O)=O)c1=O	false
O=C(N/C(=C\c1cccc([N+](=O)[O-])c1)c1nc2cc([N+](=O)[O-])ccc2[nH]1)c1ccccc1	false
Cc1nc(C(N)=S)sc1C(/C=C/c1ccc(Cl)c(Cl)c1)=N/NC(C)(C)C	false
Cc1cc(C)c(S(=O)(=O)N[C@@H](/C=C(\Br)CO)C(C)C)c(C)c1	false
N[C@H](C(=O)O)[C@@H]1CC(Br)=NO1	false
CC1(C)N=C(N)N=C(N)N1CCCCc1ccccc1	true
Cc1cc(O)c(C(C)C)cc1CN1CCCCC1	false
COc1ccc(/C=N/N=C(\N)NO)cc1OC	false
COC(=O)C1(c2cc3ccccc3n2S(=O)(=O)c2ccccc2)CC2C=CC1NC2 (stereo not drawn)	false
